Just for reference, patent EP4424325A1 is where these values come from.

- system_name: T1, recombinant hTfR, extracellular region of human transferrin receptor with a histidine tag added at the … (human, UniProt P02786 89-760)
- T1 construct: also called hTfR-ECD(Histag); human TfR; not shown: N-terminal histidine tag
- assay_text: BLI (OctetRED96), His-tagged TfR ECD on Ni-NTA sensor, peptide in solution
pKd: −log10 of the molar value.
Measured pKd values are reported for all entries that follow.
measurement_type: pKd

1) hTfR affinity peptide 5 (VHH, Same CDRs as peptide 3; The tag is stated only for peptide 1; Peptides 2 to 5 were obtained 'in the same manner'; also called clone 5; VHH(5)) VHH: QVQLVESGGGLVQPGGSLRLSCAASGSIFDIYVMRWYRQAPGKGLEWVASIYDGGRNDYDNVVKGRFTISRDNSKNTLYLQMNSLRAEDTAVYFCNVLTYAGRPYWGQGTQVTVSS = 7.86
2) hTfR affinity peptide 6 (VHH, One amino acid of CDR2 of peptide 5 is substituted; also called VHH6) VHH: QVQLVESGGGLVQPGGSLRLSCAASGSIFDIYVMRWYRQAPGKGLEWVASIYAGGRNDYDNVVKGRFTISRDNSKNTLYLQMNSLRAEDTAVYFCNVLTYAGRPYWGQGTQVTVSS = 6.86
